Biological target: CD137 expressed on cells (CHO cells expressing CD137; Jurkat cells of the Promega CD137 luciferase reporter assay) (UniProt Q07011)
Sequence (Q07011 24-255 limits assumed): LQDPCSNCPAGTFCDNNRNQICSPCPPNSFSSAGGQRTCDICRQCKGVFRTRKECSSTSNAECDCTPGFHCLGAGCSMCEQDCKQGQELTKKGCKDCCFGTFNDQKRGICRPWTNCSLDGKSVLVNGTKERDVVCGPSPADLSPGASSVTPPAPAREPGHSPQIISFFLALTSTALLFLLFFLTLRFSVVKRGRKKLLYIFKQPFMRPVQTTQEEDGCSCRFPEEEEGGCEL
Assay: cell-based or functional assay
Starred links: 1 amine or outer side, 2 acyl side, 3 side chain; linkers in the order of their positions; H or OH if unused. Positions of bridges follow the written chain, without caps; N, C: chain ends. Non-standard residues stand in square brackets, D forms with d. Chains are numbered I, II in the order given. No end group written: not given here. *: point of attachment. TATA = O=C(CC[*:1])N1CN(C(=O)CC[*:2])CN(C(=O)CC[*:3])C1; Hyp = O=C(O)[C@@H]1C[C@@H](O)CN1; hArg = N=C(N)NCCCC[C@H](N)C(=O)O; tBuAla = CC(C)(C)C[C@H](N)C(=O)O; Nle = CCCC[C@H](N)C(=O)O; Pent4ynoyl = C#CCCC(=O)*; βAla = NCCC(=O)O; Sar = CNCC(=O)O
Parameter: Fold Induction over Background, CD137 reporter assay, co-culture with PC3 (EphA2). Scope: all listed entries.
attribute_measured: Fold Induction over Background, CD137 reporter assay, co-culture with PC3 (EphA2) (fold)

| binder | recorded_measurement |
| --- | --- |
| heterotandem bicyclic peptide complex BCY10568 (linker I:14-I:21-I:28, II:1-II:8-II:15 via TATA; not fully specified (C-terminus); numbers in words are those of the source; also: chains joined by PEG12 linker, triazole from PYA, linker on chain 2 Lys4 side chain) peptide 1: {Pent4ynoyl-βAla}-[Sar][Sar][Sar][Sar][Sar][Sar][Sar][Sar][Sar][Sar]A[hArg]DC[Hyp]LVNPLCLHP[dD]W[hArg]C peptide 2: Ac-C[tBuAla]PK[dA]PYCFADPY[Nle]CA | 32 |
| heterotandem bicyclic peptide complex BCY10570 (linker I:14-I:21-I:28, II:1-II:8-II:15 via TATA; not fully specified (C-terminus); numbers in words are those of the source; also: chains joined by PEG12 linker, triazole from PYA, linker on chain 2 D-Lys side chain) peptide 1: {Pent4ynoyl-βAla}-[Sar][Sar][Sar][Sar][Sar][Sar][Sar][Sar][Sar][Sar]A[hArg]DC[Hyp]LVNPLCLHP[dD]W[hArg]C peptide 2: Ac-C[tBuAla]PE[dK]PYCFADPY[Nle]CA | 38 |
| heterotandem bicyclic peptide complex BCY10574 (linker I:4-I:11-I:18, II:1-II:8-II:15 via TATA; not fully specified (C-terminus); also: chains joined by PEG5 linker on chain 1 N-terminus, triazole to K(PYA)) peptide 1: A[hArg]DC[Hyp]LVNPLCLHP[dD]W[hArg]C peptide 2: Ac-C[tBuAla]PK(Pent4ynoyl)[dA]PYCFADPY[Nle]CA | 32 |
